pKd values for the binders below.
Target: T1, PUF4 RNA-binding domain (Saccharomyces cerevisiae, UniProt P25339 537-888)
T1 sequence: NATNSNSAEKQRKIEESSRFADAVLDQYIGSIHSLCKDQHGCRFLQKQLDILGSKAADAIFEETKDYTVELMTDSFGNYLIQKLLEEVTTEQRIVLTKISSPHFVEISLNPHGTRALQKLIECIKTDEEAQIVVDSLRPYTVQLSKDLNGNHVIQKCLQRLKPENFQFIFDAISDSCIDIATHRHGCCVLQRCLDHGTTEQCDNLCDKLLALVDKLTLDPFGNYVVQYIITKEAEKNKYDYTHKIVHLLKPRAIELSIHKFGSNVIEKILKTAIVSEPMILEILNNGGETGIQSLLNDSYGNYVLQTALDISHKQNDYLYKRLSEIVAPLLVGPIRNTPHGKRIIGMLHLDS
Experiment: Mg; RNA-MaP; 20 mM Na-HEPES pH 7.4, 30 mM KOAc, 0.75 mM MgCl2, 0.1% Tween-20, 5% glycerol, 0.1 mg/mL BSA, 2 mM DTT; 25 C; 0.0125-409.6 nM protein
Settings: tags: N-His6-TEV cleaved; C-SNAP kept, Cy3B-labelled; label: tethered on chip by stalled RNA polymerase
Worth noting: pKd values are minus log10 of concentrations stated in mol/L.

A selection of reference data follows.
{"binder": "Id_ii_S2_P3E.2_K3.1_C3.2_[C-2A]_H3.1_A3.1_F3.1_T3.2_[T9C]_[A10C] (ssRNA) RNA: UUUGAUUAAUAUGAUAUCGUUCUUUCUAUUGUAUAUACCUUCUUUCUCGAUAUCAUAUUAAUCUUU", "pKd": 8.17}
{"binder": "Ic_S4_P5E.1_K5.1_C5.1_H5.1_A5.1_[T6G]_[A7T]_F5.1_[T8C]_[T9C]_[A10C]_T5.1 (ssRNA) RNA: UUUGACAACUGAUCGUUCUUUCUUGUAUGUCCCUUCUUUCUCGAUCAGUUGUCUUU", "pKd": 7.18}
{"binder": "Ic_S2_P4E.1_K4.1_C4.1_H4.1_A4.1_[T5C]_[A6T]_F4.1_[T8G]_[A9T]_T4.1 (ssRNA) RNA: UUUGAUUAAUAUGAUAUCGUUCUUUCUUGUACUUGUUUCUUUCUCGAUAUCAUAUUAAUCUUU", "pKd": 7.14}
{"binder": "UCUCUUUGUCUCAUUAUCUCUU (ssRNA) [Ib_S1_P5E.1_K5.1_C5.1_H5.1_[A4C]_A5.1_[T6C]_F5.1_T5.1]", "pKd": 7.45}

Data request: Identify the reported pKd for the following entry. UCUCUUUGUACUCUUCUCUU (ssRNA) [Ic_S1_P3E.1_K3.1_C3.1_H3.1_A3.1_[T5C]_[A6T]_F3.1_[T7C]_[A8T]_T3.1]
Data returned: 7.35

Data request: Return pKd (reported value) for this binder: Ia_S2_P3E.1_K3.1_C3.1_H3.1_[G2T]_A3.1_F3.1_T3.1 (ssRNA) RNA: UUUGAUUAAUAUGAUAUCGUUCUUUCUUUUAUAUAUUCUUUCUCGAUAUCAUAUUAAUCUUU
Data returned: 6.44
